Reference source for all entries: patent US20140088023A1

Entries annotated with measured IC50 (µM), cytotoxicity, Day 3, LNCaP cell culture
Molecular target: T1, soluble guanylyl cyclase alpha 1 (sGCα1) (UniProt Q02108 1-690)
T1 sequence (looked up): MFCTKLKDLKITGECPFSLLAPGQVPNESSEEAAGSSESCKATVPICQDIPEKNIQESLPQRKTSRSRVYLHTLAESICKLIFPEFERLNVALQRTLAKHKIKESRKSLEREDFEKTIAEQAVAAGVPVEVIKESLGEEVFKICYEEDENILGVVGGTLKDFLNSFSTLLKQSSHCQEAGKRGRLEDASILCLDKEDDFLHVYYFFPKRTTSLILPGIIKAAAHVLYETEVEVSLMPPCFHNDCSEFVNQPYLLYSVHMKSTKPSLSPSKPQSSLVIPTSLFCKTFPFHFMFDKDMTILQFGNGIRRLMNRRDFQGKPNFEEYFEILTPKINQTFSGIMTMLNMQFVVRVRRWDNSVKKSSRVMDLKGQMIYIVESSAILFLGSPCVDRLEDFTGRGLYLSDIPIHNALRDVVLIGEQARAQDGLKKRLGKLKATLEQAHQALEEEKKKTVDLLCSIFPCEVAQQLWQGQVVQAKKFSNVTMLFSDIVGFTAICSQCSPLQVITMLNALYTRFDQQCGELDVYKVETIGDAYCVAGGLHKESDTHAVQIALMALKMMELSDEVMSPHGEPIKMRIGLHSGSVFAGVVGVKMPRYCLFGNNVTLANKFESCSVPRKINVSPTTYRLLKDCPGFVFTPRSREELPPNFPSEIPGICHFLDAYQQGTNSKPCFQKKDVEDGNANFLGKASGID
Assay: cell-based or functional assay
Ends that are not written are not given here.
reported endpoint: IC50 (µM), cytotoxicity, Day 3, LNCaP cell culture

{"binder": "FCKAFRRRRRRRR-NH2 [Peptide FF5-8R]", "observed measurement": "22 µM"}
{"binder": "Ac-TFCKAFPFHIIRRRRRRRR-OH [Peptide A-8R]", "observed measurement": "8 µM"}
{"binder": "TFCKAFRRRRRRRR-NH2 [Peptide TF6-8R]", "observed measurement": "18 µM"}
{"binder": "ACKAFRRRRRRRR-NH2 [Peptide FF5-F1A-8R]", "observed measurement": "200 µM"}
